Note to self: these compounds have Kd reported for the protein given by its sequence in various publications.
Target chain: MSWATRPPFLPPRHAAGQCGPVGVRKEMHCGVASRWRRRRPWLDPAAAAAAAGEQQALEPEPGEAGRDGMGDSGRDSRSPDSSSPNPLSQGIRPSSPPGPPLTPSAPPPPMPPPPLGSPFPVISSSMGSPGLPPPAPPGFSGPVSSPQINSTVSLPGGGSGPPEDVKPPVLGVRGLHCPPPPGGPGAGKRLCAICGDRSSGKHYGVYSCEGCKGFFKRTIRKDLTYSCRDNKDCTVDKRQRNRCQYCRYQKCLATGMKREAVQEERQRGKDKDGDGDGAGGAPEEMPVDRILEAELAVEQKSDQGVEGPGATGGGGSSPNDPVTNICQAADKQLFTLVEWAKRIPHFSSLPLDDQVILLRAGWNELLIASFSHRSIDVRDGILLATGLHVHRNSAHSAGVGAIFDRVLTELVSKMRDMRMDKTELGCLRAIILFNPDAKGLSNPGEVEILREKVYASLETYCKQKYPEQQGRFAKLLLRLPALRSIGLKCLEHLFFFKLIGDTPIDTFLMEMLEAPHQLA

compound-string | measure-unit | result-operator | Kd
Cc1cc2c(cc1Sc1ncc(C(=O)O)s1)C(C)(C)CCC2(C)C | µM | = | 1
C=C(c1ccc(C(=O)O)cc1)c1cc2c(cc1OC)C(C)(C)CCC2(C)C | µM | = | 0.191
C=C(c1ccc(C(=O)O)cc1)c1cc2c(cc1CC)C(C)(C)CCC2(C)C | µM | = | 0.044
COc1cc2c(cc1C(=O)c1ccc(C(=O)O)cc1)C(C)(C)CCC2(C)C | µM | > | 1
C=C(c1ccc(C(=O)O)cc1)c1cc2c(cc1Cl)C(C)(C)CCC2(C)C | µM | = | 0.044
C=C(c1ccc(C(=O)O)cc1)c1cc2c(cc1C)CCCC2(C)C | µM | > | 1
C=C(c1ccc(C(=O)O)cc1)c1cc2c(cc1C(C)C)C(C)(C)CCC2(C)C | µM | = | 0.075
C=C(c1ccc(C(=O)O)cc1)c1cc2c(cc1Br)C(C)(C)CCC2(C)C | µM | = | 0.034
Cc1cc2c(cc1C1(c3ccc(C(=O)O)cc3)CC1)C(C)(C)CCC2(C)C | µM | = | 0.07
C=C(c1ccc(C(=O)O)cc1)c1cc2c(cc1F)C(C)(C)CCC2(C)C | µM | = | 0.108

###

Listed below are molecules with Kd for Retinoic acid receptor RXR-beta (Mus musculus), each taken from published literature.
system-tested: Retinoic acid receptor RXR-beta (Mus musculus)
Sequence (P28704 whole entry): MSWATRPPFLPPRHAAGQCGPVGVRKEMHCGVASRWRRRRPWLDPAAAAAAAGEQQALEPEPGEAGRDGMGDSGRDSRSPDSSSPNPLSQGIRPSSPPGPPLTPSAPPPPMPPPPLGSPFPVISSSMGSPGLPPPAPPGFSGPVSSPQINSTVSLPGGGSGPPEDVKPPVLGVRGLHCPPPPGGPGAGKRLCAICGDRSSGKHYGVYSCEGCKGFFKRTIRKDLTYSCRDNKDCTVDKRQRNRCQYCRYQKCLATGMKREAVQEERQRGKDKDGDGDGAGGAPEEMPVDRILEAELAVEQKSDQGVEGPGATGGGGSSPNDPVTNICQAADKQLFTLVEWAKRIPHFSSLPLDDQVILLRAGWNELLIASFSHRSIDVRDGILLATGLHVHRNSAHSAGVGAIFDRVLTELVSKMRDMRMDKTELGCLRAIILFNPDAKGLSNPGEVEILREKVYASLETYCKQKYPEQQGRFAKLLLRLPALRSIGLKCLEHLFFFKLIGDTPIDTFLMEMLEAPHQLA

molecule | Kd [nM]
C=C(c1ccc(C(=O)O)cc1)c1cc2c(cc1CCC)C(C)(C)CCC2(C)C | 236
CC(/C=C/CC1(c2cc3c(cc2C)C(C)(C)CCC3(C)C)CC1)=C\C(=O)O | 18
C=C(c1ccc(C(=O)O)cc1)c1cc2c(cc1C)C(C)(C)C(C)C2(C)C (stereo not drawn) | 291
